- assay.name: total protein half-life in vivo (active degradation + dilution); higher = more stable protein
- run.parameters: E. coli NCM3722 delta-smpB; growth: N-lim chemostat; doubling time 6 h
Attribute: total protein half-life in vivo
quantity: total protein half-life in vivo

1) MSLINTKIKPFKNQAFKNGEFIEITEKDTEGRWSVFFFYPADFTFVCPTELGDVADHYEELQKLGVDVYAVSTDTHFTHKAWHSSSETIAKIKYAMIGDPTGALTRNFDNMREDEGLADRATFVVDPQGIIQAIEVTAEGIGRDASDLLRKIKAAQYVASHPGEVCPAKWKEGEATLAPSLDLVGKI [P0AE08]; 2.12 h
2) MTKYALVGDVGGTNARLALCDIASGEISQAKTYSGLDYPSLEAVIRVYLEEHKVEVKDGCIAIACPITGDWVAMTNHTWAFSIAEMKKNLGFSHLEIINDFTAVSMAIPMLKKEHLIQFGGAEPVEGKPIAVYGAGTGLGVAHLVHVDKRWVSLPGEGGHVDFAPNSEEEAIILEILRAEIGHVSAERVLSGPGLVNLYRAIVKADNRLPENLKPKDITERALADSCTDCRRALSLFCVIMGRFGGNLALNLGTFGGVFIAGGIVPRFLEFFKASGFRAAFEDKGRFKEYVHDIPVYLIVHDNPGLLGSGAHLRQTLGHIL [P0A6V8]; 5.16 h
3) MTDNTYQPAKVWTWDKSAGGAFANINRPVSGPTHEKTLPVGKHPLQLYSLGTPNGQKVTIMLEELLALGVTGAEYDAWLIRIGDGDQFSSGFVEVNPNSKIPALRDHTHNPPIRVFESGSILLYLAEKFGYFLPQDLAKRTETMNWLFWLQGAAPFLGGGFGHFYHYAPVKIEYAINRFTMEAKRLLDVLDKQLAQHKFVAGDEYTIADMAIWPWFGNVVLGGVYDAAEFLDAGSYKHVQRWAKEVGERPAVKRGRIVNRTNGPLNEQLHERHDASDFETNTEDKRQG; 4.78 h
4) MKRTKSIRHASFRKNWSARHLTPVALAVATVFMLAGCEKSDETVSLYQNADDCSAANPGKSAECTTAYNNALKEAERTAPKYATREDCVAEFGEGQCQQAPAQAGMAPENQAQAQQSSGSFWMPLMAGYMMGRLMGGGAGFAQQPLFSSKNPASPAYGKYTDATGKNYGAAQPGRTMTVPKTAMAPKPATTTTVTRGGFGESVAKQSTMQRSATGTSSRSMGG [P0ADT2]; 3.22 h
5) MRVLGIETSCDETGIAIYDDEKGLLANQLYSQVKLHADYGGVVPELASRDHVRKTVPLIQAALKESGLTAKDIDAVAYTAGPGLVGALLVGATVGRSLAFAWDVPAIPVHHMEGHLLAPMLEDNPPEFPFVALLVSGGHTQLISVTGIGQYELLGESIDDAAGEAFDKTAKLLGLDYPGGPLLSKMAAQGTAGRFVFPRPMTDRPGLDFSFSGLKTFAANTIRDNGTDDQTRADIARAFEDAVVDTLMIKCKRALDQTGFKRLVMAGGVSANRTLRAKLAEMMKKRRGEVFYARPEFCTDNGAMIAYAGMVRFKAGATADLGVSVRPRWPLAELPAA; 3.17 h
6) MQYNPLGKTDLRVSRLCLGCMTFGEPDRGNHAWTLPEESSRPIIKRALEGGINFFDTANSYSDGSSEEIVGRALRDFARREDVVVATKVFHRVGDLPEGLSRAQILRSIDDSLRRLGMDYVDILQIHRWDYNTPIEETLEALNDVVKAGKARYIGASSMHASQFAQALELQKQHGWAQFVSMQDHYNLIYREEEREMLPLCYQEGVAVIPWSPLARGRLTRPWGETTARLVSDEVGKNLYKESDENDAQIAERLTGVSEELGATRAQVALAWLLSKPGIAAPIIGTSREEQLDELLNAVDITLKPEQIAELETPYKPHPVVGFK; 3.79 h
7) MSESLHLTRNGSILEITLDRPKANAIDAKTSFEMGEVFLNFRDDPQLRVAIITGAGEKFFSAGWDLKAAAEGEAPDADFGPGGFAGLTEIFNLDKPVIAAVNGYAFGGGFELALAADFIVCADNASFALPEAKLGIVPDSGGVLRLPKILPPAIVNEMVMTGRRMGAEEALRWGIVNRVVSQAELMDNARELAQQLVNSAPLAIAALKEIYRTTSEMPVEEAYRYIRSGVLKHYPSVLHSEDAIEGPLAFAEKRDPVWKGR; 3.5 h
8) MSIKTIKYFSTIIVAVVAVLAGWWLWNYYMQSPWTRDGKIRAEQVSITPQVSGRIVELNIKDNQLVNAGDLLLTIDKTPFQIAELNAQAQLAKAQSDLAKANNEANRRRHLSQNFISAEELDTANLNVKAMQASVDAAQATLKQAQWQLAQTEIRAPVSGWVTNLTTRIGDYADTGKPLFALVDSHSFYVIGYFEETKLRHIREGAPAQITLYSDNKTLQGHVSSIGRAIYDQSVESDSSLIPDVKPNVPWVRLAQRVPVRFALDKVPGDVTLVSGTTCSIAVGQ; 5.64 h
9) MTKPYVRLDKNDAAVLLVDHQAGLLSLVRDIEPDKFKNNVLALGDLAKYFNLPTILTTSFETGPNGPLVPELKAQFPDTPYIARPGNINAWDNEDFVKAVKATGKKQLIIAGVVTEVCVAFPALSAIEEGFDVFVVTDASGTFNEITRHSAWDRLSQAGAQLMTWFGVACELHRDWRNDIEGLATLFSNHIPDYRNLMTSYDTLTKQK; 4.69 h
10) MLELNFSQTLGNHCLTINETLPANGITAIFGVSGAGKTSLINAISGLTRPQKGRIVLNGRVLNDAEKGICLTPEKRRVGYVFQDARLFPHYKVRGNLRYGMSKSMVDQFDKLVALLGIEPLLDRLPGSLSGGEKQRVAIGRALLTAPELLLLDEPLASLDIPRKRELLPYLQRLTREINIPMLYVSHSLDEILHLADRVMVLENGQVKAFGALEEVWGSSVMNPWLPKEQQSSILKVTVLEHHPHYAMTALALGDQHLWVNKLDEPLQAALRIRIQASDVSLVLQPPQQTSIRNVLRAKVVNSYDDNGQVEVELEVGGKTLWARISPWARDELAIKPGLWLYAQIKSVSITA; 5.04 h

====

- assay.name: total protein half-life in vivo (active degradation + dilution); higher = more stable protein
- run.parameters: E. coli NCM3722 delta-hslV; growth: N-lim chemostat; doubling time 6 h
Measured total protein half-life in vivo, listed per entry.
quantity: total protein half-life in vivo (h)

1) MMNPVLWLQMTNMISYQGLVRTFLNKNDLKAFIAFPSSLYPDDPNWIPPLFIERNEHLSAKNPGTDHIIWQAWVAKKAGQIVGRITAQIDTLHRERYGKDTGHFGMIDAIDDPQVFAALFGAAEAWLKSQGASKISGPFSLNINQESGLLIEGFDTPPCAMMPHGKPWYAAHIEQLGYHKGIDLLAWWMQRTDLTFSPALKKLMDQVRKKVTIRCINRQRFAEEMQILREIFNSGWQHNWGFVPFTEHEFATMGDQLKYLVPDDMIYIAEIDSAPCAFIVGLPNINEAIADLNGSLFPFGWAKLLWRLKVSGVRTARVPLMGVRDEYQFSRIGPVIALLLIEALRDPFARRKIDALEMSWILETNTGMNNMLERIGAEPYKRYRLYEKQI; 2.23
2) MKSRAAVAFAPGKPLEIVEIDVAPPKKGEVLIKVTHTGVCHTDAFTLSGDDPEGVFPVVLGHEGAGVVVEVGEGVTSVKPGDHVIPLYTAECGECEFCRSGKTNLCVAVRETQGKGLMPDGTTRFSYNGQPLYHYMGCSTFSEYTVVAEVSLAKINPEANHEHVCLLGCGVTTGIGAVHNTAKVQPGDSVAVFGLGAIGLAVVQGARQAKAGRIIAIDTNPKKFDLARRFGATDCINPNDYDKPIKDVLLDINKWGIDHTFECIGNVNVMRAALESAHRGWGQSVIIGVAVAGQEISTRPFQLVTGRVWKGSAFGGVKGRSQLPGMVEDAMKGDIDLEPFVTHTMSLDEINDAFDLMHEGKSIRTVIRY; 4.43
3) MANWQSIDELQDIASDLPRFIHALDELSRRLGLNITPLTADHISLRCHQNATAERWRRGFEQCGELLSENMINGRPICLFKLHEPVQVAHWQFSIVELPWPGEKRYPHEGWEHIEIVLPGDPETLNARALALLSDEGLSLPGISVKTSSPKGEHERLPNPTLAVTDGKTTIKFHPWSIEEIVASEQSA; 2.73
4) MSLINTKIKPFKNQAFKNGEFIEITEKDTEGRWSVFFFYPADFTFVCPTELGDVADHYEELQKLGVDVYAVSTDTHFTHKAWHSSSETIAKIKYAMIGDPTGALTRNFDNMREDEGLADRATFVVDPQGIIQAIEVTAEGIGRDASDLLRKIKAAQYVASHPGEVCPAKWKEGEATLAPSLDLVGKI [P0AE08]; 1.91
5) MKKRVYLIAAVVSGALAVSGCTTNPYTGEREAGKSAIGAGLGSLVGAGIGALSSSKKDRGKGALIGAAAGAALGGGVGYYMDVQEAKLRDKMRGTGVSVTRSGDNIILNMPNNVTFDSSSATLKPAGANTLTGVAMVLKEYPKTAVNVIGYTDSTGGHDLNMRLSQQRADSVASALITQGVDASRIRTQGLGPANPIASNSTAEGKAQNRRVEITLSPL; 6.78
6) MTSLYLASGSPRRQELLAQLGVTFERIVTGIEEQRQPQESAQQYVVRLAREKARAGVAQTAKDLPVLGADTIVILNGEVLEKPRDAEHAAQMLRKLSGQTHQVMTAVALADSQHILDCLVVTDVTFRTLTDEDIAGYVASDEPLDKAGAYGIQGLGGCFVRKINGSYHAVVGLPLVETYELLSNFNALREKRDKHDG; 3.17
